This collection of values is drawn from patent US9169254B2.

- MEASURED TARGET: human PTH1 receptor (Homo sapiens, UniProt Q03431)
- ASSAY NAME: In vitro cAMP signal activity in HKRK-B7 cells (LLC-PK1 cells overexpressing the human PTH1 receptor)
- Type: cell-based
- CONDITIONS USED: HKRK-B7 cells; compound at 1×10^−3 M; cAMP produced as percentage of that produced by hPTH(1-34) at 100 nM
Threshold check on cAMP production activity (%): at or above 70% gives condition met, strictly below gives condition not met.

Cc1cc(N(C)C(N)=O)cc(C)c1CC[S@TB3](=O)(=O)N1CCC2(CC1)N=C(C1CC(C(F)(F)F)CC(C(F)(F)F)C1)NC2=O (centres unmarked) [Compound 1138]: condition met
Cc1cc(C(=O)N2CCC(O)(CF)CC2)cc(C)c1/C=C/S(=O)(=O)N1CCC2(CC1)N=C(c1ccc(OCC(F)(F)C(F)(F)F)c(C(F)(F)F)c1)NC2=O [Compound 1249]: condition not met
Cc1cc(C(=O)N2CCC(C)(O)CC2)cc(C)c1CCS(=O)(=O)N1CCC2(CC1)N=C(c1ccc(F)c(C(F)(F)F)c1)NC2=O [Compound 803]: condition met
CCCCCCCCCC1=NC2(CCN(S(=O)(=O)CCc3c(C)cc(C(=O)N4CC[C@@H](O)C4)cc3C)CC2)C(=O)N1 [Compound 981]: condition met
CC(=O)N(C)c1ccc(CCS(=O)(=O)N2CCC3(CC2)N=C(c2cccc(OC(F)(F)F)c2)NC3=O)c(C)c1 [Compound 299]: condition met

Field: next compound
cAMP production activity (%) >= 70% for Cc1cc(C(=O)N(C)C)ccc1CCS(=O)(=O)N1CCC2(CC1)N=C(c1cccc(OC(F)(F)F)c1)NC2=O [Compound 99] ?
condition met

###

Listed here: items and their measured cAMP production activity (%).
- MEASURED TARGET: human PTH1 receptor (Homo sapiens, UniProt Q03431)
- Sequence (Q03431 27-593): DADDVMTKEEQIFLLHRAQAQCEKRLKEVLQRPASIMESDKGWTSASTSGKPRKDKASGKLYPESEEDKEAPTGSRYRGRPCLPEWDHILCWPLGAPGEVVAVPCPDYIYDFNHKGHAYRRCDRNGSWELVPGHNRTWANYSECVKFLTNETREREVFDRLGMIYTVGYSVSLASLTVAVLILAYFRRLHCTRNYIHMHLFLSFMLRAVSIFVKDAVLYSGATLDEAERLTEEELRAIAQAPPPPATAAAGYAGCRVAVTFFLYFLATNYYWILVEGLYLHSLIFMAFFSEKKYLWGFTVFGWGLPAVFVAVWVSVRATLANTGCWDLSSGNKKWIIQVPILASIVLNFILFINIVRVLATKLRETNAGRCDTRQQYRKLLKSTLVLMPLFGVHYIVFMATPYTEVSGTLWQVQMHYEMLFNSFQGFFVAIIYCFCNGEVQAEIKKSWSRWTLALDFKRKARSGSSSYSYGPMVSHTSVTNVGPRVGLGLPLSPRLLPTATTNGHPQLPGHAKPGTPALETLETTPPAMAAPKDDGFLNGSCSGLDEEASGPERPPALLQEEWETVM
- ASSAY NAME: In vitro cAMP signal activity in HKRK-B7 cells (LLC-PK1 cells overexpressing the human PTH1 receptor)
- Assay type: cell-based
- CONDITIONS USED: HKRK-B7 cells; compound at 1×10^−3 M; cAMP produced as percentage of that produced by hPTH(1-34) at 100 nM; 0.1 µM
Report the value in % with no unit label.

Cc1cc2ccc1CCS(=O)(=O)N1CCC3(CC1)N=C(NC3=O)c1cc(cc(C(F)(F)F)c1)OCCC=CCCCCN(C)C2=O [Compound 1410]: 51
C#C[C@H]1CC[C@@H](C2=NC3(CCN(S(=O)(=O)CCc4ccc(NC(C)=O)cc4C)CC3)C(=O)N2)CC1 [Compound 1370]: 64
Cc1cc2ccc1CCS(=O)(=O)N1CCC3(CC1)N=C(NC3=O)c1cc(cc(C(F)(F)F)c1)OCCC=CCCCCN(C)C2=O [Compound 1411]: 38

Proceed to the following item.
Please look up its cAMP production activity (%): C#C[C@H]1CC[C@@H](C2=NC3(CCN(S(=O)(=O)CCc4ccc(NC(C)=O)cc4C)CC3)C(=O)N2)CC1 [Compound 1074]
66
